The origin of these recorded values is ChEMBL document CHEMBL5390238.

measured target: Estrogen receptor (Homo sapiens)
Sequence (P03372 whole entry): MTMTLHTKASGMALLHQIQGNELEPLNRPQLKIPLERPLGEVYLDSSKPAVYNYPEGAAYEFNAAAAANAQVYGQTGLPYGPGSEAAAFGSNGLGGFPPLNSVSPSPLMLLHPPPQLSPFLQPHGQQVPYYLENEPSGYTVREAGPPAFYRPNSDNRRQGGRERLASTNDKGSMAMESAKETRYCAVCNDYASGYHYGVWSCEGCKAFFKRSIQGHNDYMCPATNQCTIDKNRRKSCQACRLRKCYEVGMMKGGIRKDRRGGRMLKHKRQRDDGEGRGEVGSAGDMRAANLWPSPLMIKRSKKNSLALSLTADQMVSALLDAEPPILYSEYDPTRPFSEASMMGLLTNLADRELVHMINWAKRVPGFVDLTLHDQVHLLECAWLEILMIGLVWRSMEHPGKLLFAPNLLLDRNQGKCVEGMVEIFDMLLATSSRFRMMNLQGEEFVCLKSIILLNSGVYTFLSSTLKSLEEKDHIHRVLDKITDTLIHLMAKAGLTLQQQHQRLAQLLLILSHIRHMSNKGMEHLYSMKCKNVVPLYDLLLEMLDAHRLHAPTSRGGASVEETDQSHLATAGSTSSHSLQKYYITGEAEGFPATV
test name: Inhibition of human ERalpha expressed in Saccharomyces cerevisiae co-expressing lacZ using CPRG as substrate incubated for 48 hrs by Colorimetric assay
measurement type: IC50 (nM)
Answer in nM, number only, no unit symbol.

Please fill in: IC50 reported for `CCC(Cc1ccc(OC)cc1)=C(c1ccc(O)cc1)c1ccc(OCCCN(C)C)cc1` = 510

###

Tested on: MCF7
test name: Cytotoxicity against human MCF7 cells assessed as inhibition of cell growth in presence of paclitaxel by MTT assay
Assay type: functional, cell-based
measurement type: IC50 (nM)
Answer in nM, number only, no unit symbol.

Please fill in: IC50 reported for COc1cc(/C=C/C(=O)CC(=O)/C=C/c2ccc(O)c(OC)c2)ccc1O [CURCUMIN] = 88

###

Test system: NCI/ADR-RES
test name: Cytotoxicity against human MCF7ADR cells
Type: functional, cell-based
measurement type: IC50 (nM)
Answer in nM, number only, no unit symbol.

Please fill in: IC50 reported for `O=c1cc(-c2ccc(O)cc2)oc2cc(O)cc(O)c12` = 200

###

test name: Cytotoxicity against human RL14 cells incubated for 72 hrs by resazurin blue assay
Format: toxicity, cell-based
measurement type: IC50 at 72 h (nM)
Answer in nM, number only, no unit symbol.

Please fill in: IC50 at 72 h reported for COc1cccc2c1C(=O)c1c(O)c3c(c(O)c1C2=O)C[C@@](O)(C(=O)CO)C[C@@H]3O[C@H]1C[C@H](NC(=O)CNC(=O)Oc2ccc(C3=C(O)C(=O)C4C(O)=CC(O)=CC4O3)cc2O)[C@H](O)[C@H](C)O1 (stereo partly specified) = 5
